Data credit: ChEMBL document CHEMBL4270535

# Procedure text: Selectivity index, ratio of IC50 for mouse L929 cells to IC50 for synchronized ring stage of chloroquine-sensitive Plasmodium falciparum 3D7 infected in human erythrocytes
# Format: toxicity, cell-based
# Condition info: read-out: Ratio IC50
Endpoint: selectivity ratio
Form field (numeric): enter value without unit.

input: // lookup selectivity ratio for C=CCOc1c(OC)cc(/C=C/C(=O)c2ccccc2)cc1-c1cc(/C=C/C(=O)c2ccccc2)cc(OC)c1OCC=C
output: 7.1

input: // lookup selectivity ratio for COc1cc(/C=C/C(=O)c2ccccc2)cc(-c2cc(/C=C/C(=O)c3ccccc3)cc(OC)c2OC)c1OC
output: 1.1

input: // lookup selectivity ratio for C=CCc1cc(/C=C/C(=O)c2cccc(C(=O)/C=C/c3cc(CC=C)c(OC)c(OC)c3)c2)cc(OC)c1OC
output: 8.8

input: // lookup selectivity ratio for C=CCOc1c(OC)cc(/C=C/C(=O)c2ccc([N+](=O)[O-])cc2)cc1-c1cc(/C=C/C(=O)c2ccc([N+](=O)[O-])cc2)cc(OC)c1OCC=C
output: 3.2

====

# Procedure text: Selectivity index, ratio of IC50 for human HeLa cells to IC50 for synchronized ring stage of chloroquine-sensitive Plasmodium falciparum 3D7 infected in human erythrocytes
# Format: toxicity, cell-based
# Condition info: read-out: Ratio IC50
Endpoint: selectivity ratio

input: // lookup selectivity ratio for C=CCOc1c(OC)cc(/C=C/C(=O)c2ccc([N+](=O)[O-])cc2)cc1-c1cc(/C=C/C(=O)c2ccc([N+](=O)[O-])cc2)cc(OC)c1OCC=C
output: > 4

input: // lookup selectivity ratio for C=CCOc1c(OC)cc(/C=C/C(=O)c2ccc3c(c2)OCO3)cc1-c1cc(/C=C/C(=O)c2ccc3c(c2)OCO3)cc(OC)c1OCC=C
output: > 2.6

input: // lookup selectivity ratio for C=CCOc1c(OC)cc(/C=C/C(=O)c2ccc(OCCC)cc2)cc1-c1cc(/C=C/C(=O)c2ccc(OCCC)cc2)cc(OC)c1OCC=C
output: > 66.7

====

# Test system: Plasmodium falciparum
# Procedure text: Antiplasmodial activity against synchronized ring stage of chloroquine-resistant Plasmodium falciparum Dd2 infected in human erythrocytes after 48 hrs by SYBR Green 1 dye based fluorescence assay
# Format: functional, organism-based
# Condition info: Dd2, 48 h
Endpoint: pIC50
Would you please state pIC50, meaning minus log10 of the concentration in mol/L, as a bare number?

input: // lookup pIC50 for C=CCOc1c(OC)cc(/C=C/C(=O)c2ccc3c(c2)OCO3)cc1-c1cc(/C=C/C(=O)c2ccc3c(c2)OCO3)cc(OC)c1OCC=C
output: 5.42

input: // lookup pIC50 for COc1cc(/C=C/C(=O)c2ccccc2)cc(-c2cc(/C=C/C(=O)c3ccccc3)cc(OC)c2OC)c1OC
output: 5.43

input: // lookup pIC50 for C=CCOc1c(OC)cc(/C=C/C(=O)c2ccc(OCCC)cc2)cc1-c1cc(/C=C/C(=O)c2ccc(OCCC)cc2)cc(OC)c1OCC=C
output: 4.94

input: // lookup pIC50 for C=CCOc1c(OC)cc(/C=C/C(=O)c2ccccc2)cc1-c1cc(/C=C/C(=O)c2ccccc2)cc(OC)c1OCC=C
output: 5.68

input: // lookup pIC50 for C=CCOc1c(OC)cc(/C=C/C(=O)c2cc(OC)c(OC)c(OC)c2)cc1-c1cc(/C=C/C(=O)c2cc(OC)c(OC)c(OC)c2)cc(OC)c1OCC=C
output: 5.77

input: // lookup pIC50 for C=CCOc1ccc(C(=O)/C=C/c2cc(OC)c(OCC=C)c(-c3cc(/C=C/C(=O)c4ccc(OCC=C)cc4)cc(OC)c3OCC=C)c2)cc1
output: 4.78

input: // lookup pIC50 for C=CCc1cc(/C=C/C(=O)c2cccc(C(=O)/C=C/c3cc(CC=C)c(OC)c(OC)c3)c2)cc(OC)c1OC
output: 5.46

input: // lookup pIC50 for C=CCOc1c(OC)cc(/C=C/C(=O)c2ccc([N+](=O)[O-])cc2)cc1-c1cc(/C=C/C(=O)c2ccc([N+](=O)[O-])cc2)cc(OC)c1OCC=C
output: 5.03

input: // lookup pIC50 for C[C@@H]1CC[C@H]2[C@@H](C)C(=O)O[C@@H]3O[C@@]4(C)CC[C@@H]1[C@]32OO4 [ARTEMISININ]
output: 7.89

input: // lookup pIC50 for C=CCOc1ccc(/C=C/C(=O)c2cccc(C(=O)/C=C/c3ccc(OCC=C)c(OCC=C)c3)c2)cc1OCC=C
output: 4.72
